- systemUnderTest: rat RXFP2 (Rattus norvegicus, UniProt F7EMH8)
- Sequence (F7EMH8 20-737): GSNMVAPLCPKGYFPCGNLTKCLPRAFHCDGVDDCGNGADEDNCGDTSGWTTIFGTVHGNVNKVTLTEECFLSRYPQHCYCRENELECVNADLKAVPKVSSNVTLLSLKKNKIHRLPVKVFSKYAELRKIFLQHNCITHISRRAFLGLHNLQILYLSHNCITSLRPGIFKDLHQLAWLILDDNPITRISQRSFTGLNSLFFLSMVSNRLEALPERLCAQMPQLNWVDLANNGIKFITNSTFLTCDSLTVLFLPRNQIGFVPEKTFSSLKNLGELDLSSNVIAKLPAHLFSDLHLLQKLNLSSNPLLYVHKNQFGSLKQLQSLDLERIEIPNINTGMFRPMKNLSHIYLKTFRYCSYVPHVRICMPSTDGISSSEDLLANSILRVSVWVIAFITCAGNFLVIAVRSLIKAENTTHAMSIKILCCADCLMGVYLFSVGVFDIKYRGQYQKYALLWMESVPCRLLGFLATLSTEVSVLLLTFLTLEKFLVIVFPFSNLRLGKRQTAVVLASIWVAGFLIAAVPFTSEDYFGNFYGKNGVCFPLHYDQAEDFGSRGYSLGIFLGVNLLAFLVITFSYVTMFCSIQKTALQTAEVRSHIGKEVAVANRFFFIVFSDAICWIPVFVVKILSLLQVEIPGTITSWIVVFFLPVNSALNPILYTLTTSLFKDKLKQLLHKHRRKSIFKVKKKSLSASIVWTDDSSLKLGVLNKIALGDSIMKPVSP
- methodSummary: INSL3-stimulated CYP11B2 mRNA expression in H295R stably expressing rat RXFP2
- Format: cell-based
- Parameters: expressed in transfected cells
- runParameters: INSL3 EC80 (3.5 nM), 48 h, qPCR; N = 2
- Experimental: RXFP2 antagonists were added to H295R-rRXFP2 before addition of INSL3 EC80 (3.5 nM) for 48 h, whereupon the cells and supernatants were collected. CYP11B1 and CYP11B2 mRNA were determined by qPCR and the RXFP2 blocker potencies were calculated (Fig. 5a). Fifteen antibodies have IC50s < 50 nM, and three of the top antibodies (1F2, 4G6, and 2D4) were selected for evaluation in steroid hormone secretion assays by ELISA. Data entered as XY table, with x = [Inhibitor] […]
Overview of reported IC50 across a group of molecules:
Output spec: scalar in pM, unitless text.

{"columns": ["molecule", "quantitativeResult"],
 "data": [
  ["2D4: RXFP2 monoclonal antibody from hybridoma, recombinantly expressed in a rat IgG2b backbone (antibody, V domains shown) VH: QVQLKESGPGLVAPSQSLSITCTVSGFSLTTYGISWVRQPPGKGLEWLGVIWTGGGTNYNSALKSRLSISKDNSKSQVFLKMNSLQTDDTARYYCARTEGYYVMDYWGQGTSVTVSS VL: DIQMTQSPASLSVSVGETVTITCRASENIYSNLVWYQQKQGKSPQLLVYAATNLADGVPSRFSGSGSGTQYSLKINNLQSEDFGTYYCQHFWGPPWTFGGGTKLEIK", 110],
  ["4G6: Human/rat cross-reactive RXFP2 monoclonal antibody, rat IgG2b backbone; binds the LDLa domain (antibody, V domains shown) VH: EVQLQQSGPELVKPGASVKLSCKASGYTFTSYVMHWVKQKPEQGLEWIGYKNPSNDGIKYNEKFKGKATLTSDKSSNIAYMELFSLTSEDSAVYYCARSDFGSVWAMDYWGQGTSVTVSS VL: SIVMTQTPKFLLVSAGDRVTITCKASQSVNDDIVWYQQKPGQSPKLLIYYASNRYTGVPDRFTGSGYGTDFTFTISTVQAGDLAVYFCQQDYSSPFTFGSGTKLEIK", 100]
]}

Here is the next item to consider.
Incoming: Tell me the measured IC50 of 4A5: RXFP2 monoclonal antibody from hybridoma, recombinantly expressed in a rat IgG2b backbone (antibody, V domains shown) VH: DVQLVESGGGLVQPGGSRKLSCAASGFTFSTFGMHWVRQAPEKGLEWVAYISSGSSTIYYADTVKGRFTISRDNPKNTLFLQMTSLRSDDTAMYYCSRSYYGSAHYFDYWGQGTTLTVSS VL: DIQMTQSPASLSVSVGETVTITCRASENIYSNLAWYQQKQGKSPQLLVYVATNLADGVPSRFSGSGSGTQYSLRINNLQSEDFGNYYCQHFWGTPPTFGGGTKLEIK , please.
Outgoing: 310
